Literature roundup of UniProt:P00918 data, read-out Ki.
Measured property: Ki (µM)

Smi: COc1cc(C(=O)OCCCCCCCN(C)CCOC(=O)c2ccc(S(N)(=O)=O)cc2)cc(OC)c1OC
Tested system: UniProt:P00918
Ki [µM]: 0.0902
--
Smi: N#Cc1ccc(/C=C/c2ccc(O)cc2)cc1
Tested system: UniProt:P00918
Ki [µM]: 75.3
--
Smi: CN(CCCCCCOC(=O)c1c2ccccc2cc2ccccc12)CCCOC(=O)c1ccc(S(N)(=O)=O)cc1
Tested system: UniProt:P00918
Ki [µM]: 0.422
--
Smi: NS(=O)(=O)c1ccc(NC(=O)c2cc3sccc3n2Cc2ccc(Cl)cc2)cc1
Tested system: UniProt:P00918
Ki [µM]: 0.0681
--
Smi: CC(C)C(=O)Nc1ccc(C(=O)NC(=S)Nc2ccc(C(=O)O)cc2)cc1
Tested system: UniProt:P00918
Ki [µM]: 0.43
--
Smi: NS(=O)(=O)c1ccc(CCNC(=O)c2ccc3[nH]ccc3c2)cc1
Tested system: UniProt:P00918
Ki [µM]: 0.0086

A = Cc1ccc(NS(=O)(=O)c2ccc(Nc3ncc4c(n3)CC(C)(C)CC4=O)cc2)cc1
B = NS(=O)(=O)c1ccc(NC(=S)NCc2cn(CCCS(=O)(=O)[O-])nn2)cc1.[Na+]
// task: argmin of Ki over [ A , B ] Identify your selection by its label. B
(B: 0.0214 µM, A: 22.4 µM)

###

Collected literature values of Ki measured for Carbonic anhydrase 2 (Homo sapiens, UniProt P00918).
Measured property: Ki (nM)

Smi: Cc1ccc(-c2c(S(=O)(=O)c3ccccc3)nnn2-c2ccc(S(N)(=O)=O)cc2)cc1
Ki / nM: 7.8

Smi: Cc1ccc(C(=O)Nc2ccc(C(=O)NC(=S)Nc3ccc(S(N)(=O)=O)cc3)cc2)cc1
Ki / nM: 39

Smi: NS(=O)(=O)c1ccc(N2CC[C@@H](NC(=O)Nc3ccc(F)cc3)C2)nc1
Ki / nM: 15.1

A = CC1(C)CC(=O)c2cnc(Nc3ccc(S(=O)(=O)Nc4ccc([N+](=O)[O-])cc4)cc3)nc2C1
B = NS(=O)(=O)c1ccc(N2CC[C@H](NC(=O)Nc3ccc(F)cc3)C2)nc1
For the two items A and B , which reports the higher Ki value? Select an item and report its label. A

###

Compiled Ki measurements on Carbonic anhydrase 2 (Homo sapiens, UniProt P00918) taken from the literature.
Measured property: Ki (nM)

Would you please look over these solved cases?
Smi: COc1cc(/C=C/C(=O)OCCCCCCCN(C)CCCCCCCOC(=O)c2ccc(S(N)(=O)=O)cc2)cc(OC)c1OC
Obs value: 445
--
Smi: COc1cc(C(=O)OCCCCCCN(C)CCCOC(=O)c2ccc(S(N)(=O)=O)cc2)cc(OC)c1OC
Obs value: 8.9

P = Cc1ncc(C2=C(O)CCCC2=O)n1CCO
Q = NS(=O)(=O)c1ccc2c(c1)CCN2C(=O)c1c(F)c(F)c(F)c(F)c1F
R = NS(=O)(=O)c1ccccc1NC(=O)c1ccc2[nH]ccc2c1
S = CSCC[C@@H](NC(=O)OCc1ccccc1)C(=O)NCCc1ccc(S(N)(=O)=O)cc1
T = COc1ccc(-c2nc(Nc3ccc(C(=O)O)cc3)c3ccccc3n2)cc1
# sort list by recorded Ki, greatest to least Lab note: final answer is the ordered label list. P, T, R, Q, S
(P: 9140 nM, T: 4600 nM, R: 71.9 nM, Q: 3.4 nM, S: 1.7 nM)

###

pKi: −log10 of the molar value.
System: Carbonic anhydrase 2 (Homo sapiens) | Read-out: pKi | Origin: multiple publications
Measured property: pKi

Smi: CC(C)(C)c1ccc(C2=C/C(=C\c3ccc(Cl)cc3)C(=O)N2CCc2ccc(S(N)(=O)=O)cc2)cc1
Obs value: 5.36

a = COc1ccc(OCc2cn(CCCS(N)(=O)=O)nn2)cc1
b = NS(=O)(=O)c1ccc(NC(=O)Nc2ccc(OCc3cn(CCCS(=O)(=O)[O-])nn3)cc2)cc1.[Na+]
c = COc1cccc(OCc2cn(CCCS(N)(=O)=O)nn2)c1
Order the records, beginning with the lowest pKi and ending with the highest. Give the order by naming the labels one after another as requested. c, a, b
(c: 5.39, a: 5.61, b: 8.27)

###

Collected from the literature: Ki of various compounds toward Carbonic anhydrase 2 (Homo sapiens, UniProt P00918).
Measured property: Ki (µM)

1 = Cn1c2ccc(F)cc2c2nnc(SCc3cn(-c4ccc(S(N)(=O)=O)cc4)nn3)nc21
2 = COc1cc(/C=C/C(=O)OCCCCCCN(C)CCCCOC(=O)c2ccc(S(N)(=O)=O)cc2)cc(OC)c1OC
3 = CCn1c(C(=O)Nc2ccc(S(N)(=O)=O)cc2)cc2sccc21
Ascending by Ki, please: list the compounds accordingly. Provide your answer as the labels ordered per the instruction. 3, 2, 1

###

Hi, quick share: literature Ki data for Carbonic anhydrase 2 (Homo sapiens, UniProt P00918), several sources combined.

Example cases with answers are listed next.
Molecule: Cc1ccc2nc(-c3ccc(NC(=O)C(Cc4ccccc4)NC(=O)OCc4ccccc4)cc3)sc2c1 (centres unmarked)
Tested system: Carbonic anhydrase 2 (Homo sapiens, UniProt P00918)
Measured property: Ki
Obs value: 37 µM
--
Molecule: O=C(NC(=S)NC1Cc2ccccc2C1)c1cc2ccccc2oc1=O
Tested system: Carbonic anhydrase 2 (Homo sapiens, UniProt P00918)
Measured property: Ki
Obs value: > 10 µM
--
Molecule: O=C(COc1ccc2oc(=O)ccc2c1)Nc1ccc(F)cc1
Tested system: Carbonic anhydrase 2 (Homo sapiens, UniProt P00918)
Measured property: Ki
Obs value: > 10 µM
--
Molecule: CN1C(=O)C(=C2C(=O)Nc3ccc(F)cc32)SC1=Nc1ccc(S(N)(=O)=O)cc1
Tested system: Carbonic anhydrase 2 (Homo sapiens, UniProt P00918)
Measured property: Ki
Obs value: 0.274 µM
--
Molecule: COc1cccc(NS(=O)(=O)c2ccc(N3C(=O)c4ccccc4C3=O)cc2)c1
Tested system: Carbonic anhydrase 2 (Homo sapiens, UniProt P00918)
Measured property: Ki
Obs value: > 10 µM
--
Molecule: COc1cc(C(=O)OCCCCCCCN(CCCOC(=O)c2cc(OC)c(OC)c(OC)c2)CCCOc2ccc3ccc(=O)oc3c2)cc(OC)c1OC
Tested system: Carbonic anhydrase 2 (Homo sapiens, UniProt P00918)
Measured property: Ki
Obs value: > 10 µM

Determine reported Ki for CSCCC(NC(=O)OCc1ccccc1)C(=O)Nc1ccc(-c2nc3ccc(C)cc3s2)cc1 (centres unmarked) ; test system: Carbonic anhydrase 2 (Homo sapiens, UniProt P00918). 39.1 µM

Under Carbonic anhydrase 2 (Homo sapiens, UniProt P00918), report Ki for COc1cc(C(=O)OCCCN(CCCCCCOC(=O)c2c3ccccc3cc3ccccc23)CCCOc2ccc3ccc(=O)oc3c2)cc(OC)c1OC > 10 µM

###

Compiled notes: published Ki values involving Carbonic anhydrase 2 (Homo sapiens, UniProt P00918).
Measured property: Ki (µM)

Molecule: NS(=O)(=O)CCCn1cc(CNC(=O)Nc2ccc(C(F)(F)F)cc2)nn1
Quantity unit: µM
Obs value: 4.16

I = NS(=O)(=O)c1ccc(-n2nnc(S(=O)(=O)c3ccccc3)c2-c2ccc([N+](=O)[O-])cc2)cc1
II = Cc1cccc(-c2nc(Nc3cccc(C(=O)O)c3)c3ccccc3n2)c1
III = Cc1ccc(C2=C/C(=C\c3ccc(F)cc3)C(=O)N2CCc2ccc(S(N)(=O)=O)cc2)cc1
List these items ordered by Ki, big to small. The response must list the labels following the requested ordering. II, III, I
(II: 26 µM, III: 0.147 µM, I: 0.0049 µM)

1 = NS(=O)(=O)c1cccc(NC(=O)CCc2c[nH]c3ccccc23)c1
2 = O=C1CCCc2nc(Nc3ccc(S(=O)(=O)Nc4ccccc4)cc3)ncc21
3 = NC1=NC2(CCCCC2)NC(Nc2ccc(S(N)(=O)=O)cc2)=N1
4 = NS(=O)(=O)c1ccc(N2N=C(c3ccc([N+](=O)[O-])cc3)CC2c2ccccc2)cc1 (stereo not shown)
List items by Ki in falling order. Respond with the label ranking, as requested. 2, 3, 4, 1
(2: 41.2 µM, 3: 3.16 µM, 4: 0.43 µM, 1: 0.0059 µM)

I = NS(=O)(=O)c1ccc(CCNC(=O)c2ccc(OCCF)cc2)cc1
II = NS(=O)(=O)CCCn1cc(COc2ccccc2)nn1
Param metric = Ki; output whichever of I , II has the minimum value. Label of pick, please. I
(I: 0.008 µM, II: 2.72 µM)

###

Several reports have described Ki for Carbonic anhydrase 2 (Homo sapiens); a selection of those results is presented here.
Measured property: Ki (nM)

Take a look at these entries with their results.
Molecule: NS(=O)(=O)c1ccc(CCC(=O)N2CC(=O)N3CCc4ccccc4C3C2)cc1 (centres unmarked)
Measured property: Ki
Quantity unit: nM
Obs value: 17.5

Molecule: NS(=O)(=O)c1ccc2c(c1)CCN2C(=O)c1c(F)cccc1F
Measured property: Ki
Quantity unit: nM
Obs value: 9.1

I = NS(=O)(=O)c1ccc(OCCF)cc1
II = NS(=O)(=O)c1ccc(N2N=C(c3ccccc3)CC2c2ccccc2)cc1 (centres unmarked)
# argmax over Ki for candidates I and II Field: selected label. Fill in the label of the entry you choose. II
